Please provide measured MIC for the entries that follow.
Tested on: K.pneumoniae 418
testProtocol: MIC, agar dilution method in Mueller Hinton agar
Assay type: cell-based
experimentalConditions: Klebsiella pneumoniae; K.pneumoniae 418; inoculum = 10^4 CFU/spot; read-out: MIC

Please report the measured MIC for C[n+]1cccc(N2CC/C(=C\C3=C(C(=O)[O-])N4C(=O)[C@@H](NC(=O)/C(=N\OC5CCCC5)c5nsc(N)n5)[C@H]4CC3)C2=O)c1
0.25 µg/mL

Please report the measured MIC for C[n+]1cccc(N2CC/C(=C\C3=C(C(=O)[O-])N4C(=O)[C@@H](NC(=O)/C(=N\O)c5nsc(N)n5)[C@H]4CC3)C2=O)c1
≤ 0.06 µg/mL

Please report the measured MIC for C[n+]1cccc(N2CC/C(=C\C3=C(C(=O)[O-])N4C(=O)[C@@H](NC(=O)/C(=N\OCC(=O)O)c5csc(N)n5)[C@H]4CC3)C2=O)c1
≤ 0.06 µg/mL

---

System: S.pyogenes b 15
testProtocol: MIC, agar dilution method in Mueller Hinton agar
Type: cell-based
experimentalConditions: Streptococcus pyogenes; S.pyogenes b 15; inoculum = 10^4 CFU/spot; read-out: MIC
observedProperty: MIC

Please report the measured MIC for C[n+]1cccc(N2CC/C(=C\C3=C(C(=O)[O-])N4C(=O)[C@@H](NC(=O)/C(=N\O)c5csc(N)n5)[C@H]4CC3)C2=O)c1
≤ 0.06 µg/mL

Please report the measured MIC for C[n+]1cccc(N2CC/C(=C\C3=C(C(=O)[O-])N4C(=O)[C@@H](NC(=O)/C(=N\OC5CCCC5)c5nsc(N)n5)[C@H]4CC3)C2=O)c1
≤ 0.06 µg/mL

Please report the measured MIC for C[n+]1cccc(N2CC/C(=C\C3=C(C(=O)[O-])N4C(=O)[C@@H](NC(=O)/C(=N\OCC(=O)O)c5csc(N)n5)[C@H]4CC3)C2=O)c1
0.12 µg/mL

Please report the measured MIC for C[n+]1cccc(N2CC/C(=C\C3=C(C(=O)[O-])N4C(=O)[C@@H](NC(=O)/C(=N\O)c5nsc(N)n5)[C@H]4CC3)C2=O)c1
≤ 0.06 µg/mL

Please report the measured MIC for C[n+]1ccc(N2CC/C(=C\C3=C(C(=O)[O-])N4C(=O)[C@@H](NC(=O)/C(=N\OC5CCCC5)c5csc(N)n5)[C@H]4CC3)C2=O)cc1
≤ 0.06 µg/mL

Please report the measured MIC for Nc1nc(/C(=N/O)C(=O)N[C@@H]2C(=O)N3C(C(=O)O)=C(/C=C4\CCN(c5ccc(O)cc5)C4=O)CC[C@H]23)cs1
≤ 0.06 µg/mL

---

System: P.aeruginosa ATCC27853
testProtocol: MIC, agar dilution method in Mueller Hinton agar
Format: cell-based
experimentalConditions: Pseudomonas aeruginosa; P.aeruginosa ATCC27853; inoculum = 10^4 CFU/spot; read-out: MIC
Please provide measured MIC for the entries that follow.
Lab book: enter the figure in µg/mL, no units written.

Please report the measured MIC for C[n+]1cccc(N2CC/C(=C\C3=C(C(=O)[O-])N4C(=O)[C@@H](NC(=O)/C(=N\O)c5nsc(N)n5)[C@H]4CC3)C2=O)c1
8

Please report the measured MIC for C[n+]1cccc(N2CC/C(=C\C3=C(C(=O)[O-])N4C(=O)[C@@H](NC(=O)/C(=N\O)c5csc(N)n5)[C@H]4CC3)C2=O)c1
4

Please report the measured MIC for C[n+]1cccc(N2CC/C(=C\C3=C(C(=O)[O-])N4C(=O)[C@@H](NC(=O)/C(=N\OCC(=O)O)c5csc(N)n5)[C@H]4CC3)C2=O)c1
1

Please report the measured MIC for C[n+]1ccc(N2CC/C(=C\C3=C(C(=O)[O-])N4C(=O)[C@@H](NC(=O)/C(=N\OC5CCCC5)c5csc(N)n5)[C@H]4CC3)C2=O)cc1
4

Please report the measured MIC for Nc1nc(/C(=N/O)C(=O)N[C@@H]2C(=O)N3C(C(=O)O)=C(/C=C4\CCN(c5ccc(O)cc5)C4=O)CC[C@H]23)cs1
32

Please report the measured MIC for C[n+]1cccc(N2CC/C(=C\C3=C(C(=O)[O-])N4C(=O)[C@@H](NC(=O)/C(=N\OC5CCCC5)c5nsc(N)n5)[C@H]4CC3)C2=O)c1
8
